tested on: CEM cell surface receptor bound by sgc8 (protein not named in document) (Homo sapiens); experiment: flow; conditions: 5' thiol-(PEG)24 on 13.6 nm gold nanoparticle, about 95 aptamers per particle; 3' biotin or FITC; whole CEM cells; multivalent gold nanoparticle conjugate
quantity-kind: Kd (nM)
Value expressed in nM; do not type the unit.

Query :: Find the recorded Kd belonging to ATCTAACTGCTGCGCCGCCGGGAAAATACTGTACGGTTAGA [AuNP-sgc8] and report it.
Result :: 0.1
